# System: SKOV3 ovarian cancer cell line
# EXPERIMENTAL_DETAILS: growth inhibition, synergy studies
# Format: cell-based
# ASSAY_CONTEXT: Homo sapiens, SK-OV-3; SKOV3; read-out: IC50 (Mean ± SD)
MEASURED_ATTRIBUTE: IC50 (µM)
Please give a number only; it is taken to be in µM.

Task: Tell me IC50 of CC(=O)c1c(C)c2cnc(Nc3ccc(N4CCN(CC5CC6(OC5=O)C(=O)Nc5ccccc56)CC4)cn3)nc2n(C2CCCC2)c1=O (centres unmarked) [Compound 5] when tested on SKOV3 ovarian cancer cell line.
Output: 15.4

* * *

# SYSTEM_UNDER_TEST: CDK6 (Homo sapiens)
# Sequence (Q00534 whole entry): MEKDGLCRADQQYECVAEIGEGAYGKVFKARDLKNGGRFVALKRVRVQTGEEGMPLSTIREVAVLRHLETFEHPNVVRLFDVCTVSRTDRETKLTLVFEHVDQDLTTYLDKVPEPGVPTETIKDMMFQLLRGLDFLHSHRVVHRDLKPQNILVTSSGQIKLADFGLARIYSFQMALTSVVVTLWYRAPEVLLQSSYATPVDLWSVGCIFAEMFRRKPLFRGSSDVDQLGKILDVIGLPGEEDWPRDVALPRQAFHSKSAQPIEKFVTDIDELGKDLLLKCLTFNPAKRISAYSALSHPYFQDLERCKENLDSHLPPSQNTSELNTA
# Sequence (P30281 whole entry partner): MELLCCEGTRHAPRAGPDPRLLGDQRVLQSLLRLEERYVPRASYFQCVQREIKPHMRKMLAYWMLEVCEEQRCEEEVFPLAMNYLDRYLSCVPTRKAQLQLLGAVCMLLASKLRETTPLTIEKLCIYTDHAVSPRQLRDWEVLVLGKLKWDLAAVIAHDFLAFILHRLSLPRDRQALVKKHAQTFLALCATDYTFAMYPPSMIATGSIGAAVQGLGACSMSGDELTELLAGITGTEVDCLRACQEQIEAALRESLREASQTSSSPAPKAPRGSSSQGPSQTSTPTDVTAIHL
MEASURED_ATTRIBUTE: IC50 (nM)
Please give a number only; it is taken to be in nM.

Task: Specify IC50 for CC(=O)c1c(C)c2cnc(Nc3ccc(N4CCN(CC5CC6(OC5=O)C(=O)Nc5ccccc56)CC4)cn3)nc2n(C2CCCC2)c1=O (stereo not shown) and stop.
Output: 9

* * *

# System: A2780 ovarian cancer line
# EXPERIMENTAL_DETAILS: 72 h growth inhibition assay
# Format: cell-based
# ASSAY_CONTEXT: Homo sapiens, A2780, 72 h
MEASURED_ATTRIBUTE: IC50 (µM)

O=C1OC2(CC1CN1CCC(C(F)(F)F)CC1)C(=O)Nc1ccccc12 (stereo not drawn) [Compound 19-AP1] ... 5.71

[A] CN(C)CC1CC2(OC1=O)C(=O)Nc1ccccc12 (stereo not drawn) [Compound 19-AP2]
[B] C=C1CC2(OC1=O)C(=O)Nc1ccccc12 (stereo not drawn) [Compound 19, reference compound]
Task: I need your help: which of the pair A , B has higher IC50? Reply with the label of the item you choose.
Output: A
(A: 5.38 µM, B: 2.15 µM)

* * *

# System: OVCAR8 ovarian cancer cell line
# EXPERIMENTAL_DETAILS: growth inhibition, synergy studies
# Assay type: cell-based
# ASSAY_CONTEXT: Homo sapiens, OVCAR-8, read-out: IC50 (Mean ± SD)
pIC50: −log10 of the molar value.
MEASURED_ATTRIBUTE: pIC50

[P] CC(=O)c1c(C)c2cnc(Nc3ccc(N4CCN(CC5CC6(OC5=O)C(=O)Nc5ccccc56)CC4)cn3)nc2n(C2CCCC2)c1=O (centres unmarked)
[Q] CC(=O)c1c(C)c2cnc(Nc3ccc(N4CCN(CC5C(=O)O[C@@H]6[C@H]7O[C@]7(C)CCC/C=C(\C)C[C@@H]56)CC4)cn3)nc2n(C2CCCC2)c1=O (some centres unmarked)
Task: Consider entries P and Q . Which has the numerically lower pIC50? Reply with the label of the item you choose.
Output: Q
(Q: 4.42, P: 5.04)
